These measurements were taken from paper PMC5760745.

Biological target: T1, PyPABP1 (Plasmodium yoelii 17XNL, UniProt V7PUC0 1-841)
T1 sequence: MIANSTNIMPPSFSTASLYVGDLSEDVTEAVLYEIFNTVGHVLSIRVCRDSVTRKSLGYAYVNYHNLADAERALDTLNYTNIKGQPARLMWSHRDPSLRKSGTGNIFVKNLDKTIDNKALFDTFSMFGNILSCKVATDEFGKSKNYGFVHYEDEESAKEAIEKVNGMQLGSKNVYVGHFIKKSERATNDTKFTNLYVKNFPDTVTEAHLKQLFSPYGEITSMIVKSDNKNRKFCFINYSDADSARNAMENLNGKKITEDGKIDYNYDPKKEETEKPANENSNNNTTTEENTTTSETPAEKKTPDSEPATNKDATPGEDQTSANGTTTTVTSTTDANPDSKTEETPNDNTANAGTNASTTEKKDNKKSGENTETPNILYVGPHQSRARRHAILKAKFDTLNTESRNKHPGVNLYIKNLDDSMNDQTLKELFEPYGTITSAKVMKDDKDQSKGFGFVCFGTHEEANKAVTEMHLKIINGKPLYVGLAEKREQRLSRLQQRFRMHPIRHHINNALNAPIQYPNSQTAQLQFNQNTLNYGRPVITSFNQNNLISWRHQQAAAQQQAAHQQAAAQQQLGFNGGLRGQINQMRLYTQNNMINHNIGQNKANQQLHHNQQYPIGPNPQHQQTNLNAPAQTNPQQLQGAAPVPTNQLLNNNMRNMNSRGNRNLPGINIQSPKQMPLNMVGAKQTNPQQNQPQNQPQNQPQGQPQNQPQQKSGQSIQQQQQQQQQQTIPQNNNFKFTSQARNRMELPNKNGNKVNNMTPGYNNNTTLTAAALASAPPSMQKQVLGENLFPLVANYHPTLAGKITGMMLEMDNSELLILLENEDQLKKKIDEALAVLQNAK
Assay: EMSA; apparent Kd; excess tRNA, 5 mM Mg2+; EMSA/FP: 10 mM Tris-Cl pH 7.5, 5 mM MgCl2, 55 mM KCl, 2 ug tRNA, 1 mM DTT, 0.5 U/ul SUPERase-In, 2.5% glycerol, RT 20 min; ITC: 10 mM HEPES pH 7.5, 100 mM KCl
Conditions: protein: recombinant; tags: N-terminal GST (thrombin-cleavable), C-terminal 6xHis (TEV-cleavable); single strand
measurement label: pKd
Interpret pKd as the negative base-10 log of the concentration measured in mol/L.

## Task Would you kindly share the measured pKd for AAAAAAAAAAAAAAAAAAAAAAAAA (ssRNA) [biotin-poly(A) 25-mer] ?
## Result 6.73
